Consider the following compounds and their measured half-life readings.
# PROTOCOL NOTES: Half life in Sprague-Dawley rat at 20 mg/kg, ip by HPLC analysis
# Type: ADME, organism-based
# CONDITIONS USED: in vivo
ASSAY METRIC: half-life (h)

compound="CCn1c(C(=O)NC(C)CO)ccc1C(CC)(CC)c1ccc(OCC(O)C(C)(C)C)c(C)c1 (stereo not drawn)" assay_metric=half-life test_value=3.96
compound=CCN(CC)CCCNC(=O)c1ccc(C(CC)(CC)c2ccc(OCCC(O)(CC)CC)c(C)c2)n1CC assay_metric=half-life test_value=6.21
compound=CCn1c(C(=O)NCCCN2CCOCC2)ccc1C(CC)(CC)c1ccc(OCCC(O)(CC)CC)c(C)c1 assay_metric=half-life test_value=11.7
